From: patent US20250163054A1

Molecular target: human TLR7 (Homo sapiens)
Sequence (Q9NYK1 27-1049): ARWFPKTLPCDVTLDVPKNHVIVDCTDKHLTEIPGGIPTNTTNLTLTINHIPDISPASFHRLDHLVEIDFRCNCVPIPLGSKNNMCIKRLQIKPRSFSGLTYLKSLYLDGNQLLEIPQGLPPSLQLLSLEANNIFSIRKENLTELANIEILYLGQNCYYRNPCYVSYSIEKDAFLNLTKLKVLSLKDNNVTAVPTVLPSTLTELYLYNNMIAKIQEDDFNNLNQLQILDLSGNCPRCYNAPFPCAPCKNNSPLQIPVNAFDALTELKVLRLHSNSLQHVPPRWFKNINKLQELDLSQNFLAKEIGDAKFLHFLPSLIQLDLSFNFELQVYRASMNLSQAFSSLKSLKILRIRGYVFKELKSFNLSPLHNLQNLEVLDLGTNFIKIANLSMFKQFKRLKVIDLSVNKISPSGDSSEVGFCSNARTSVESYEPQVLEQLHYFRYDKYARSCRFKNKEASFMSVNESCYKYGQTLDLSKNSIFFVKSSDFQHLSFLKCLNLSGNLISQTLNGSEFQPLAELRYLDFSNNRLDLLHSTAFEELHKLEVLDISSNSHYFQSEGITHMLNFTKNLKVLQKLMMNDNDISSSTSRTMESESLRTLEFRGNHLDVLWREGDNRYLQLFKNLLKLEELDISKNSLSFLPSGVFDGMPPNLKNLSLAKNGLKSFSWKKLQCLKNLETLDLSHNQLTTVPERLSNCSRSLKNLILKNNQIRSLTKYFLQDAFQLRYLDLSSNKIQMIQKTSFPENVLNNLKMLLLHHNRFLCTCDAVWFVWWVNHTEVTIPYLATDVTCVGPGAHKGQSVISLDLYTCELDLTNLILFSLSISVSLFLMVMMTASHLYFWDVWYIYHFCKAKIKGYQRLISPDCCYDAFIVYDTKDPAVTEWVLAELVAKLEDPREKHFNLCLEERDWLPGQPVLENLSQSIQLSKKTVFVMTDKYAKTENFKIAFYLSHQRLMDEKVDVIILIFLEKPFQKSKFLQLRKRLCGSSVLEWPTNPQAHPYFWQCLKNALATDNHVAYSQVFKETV
Assay: TLR7/8/9 Inhibition Reporter Assays (TLR7)
Conditions: HEK-Blue cells overexpressing human TLR7, SEAP reporter, stimulated with TLR7 ligand gardiquimod
parameter: IC50 (µM)

Solved entries (count: 10):
For the molecule shown here, CC(C)CN1CC2(CCN(c3ccc(-c4cc5c(cn4)nc(-c4ccc(S(C)(=O)=O)cc4)n5C)cc3)CC2)C1 [Example 96] , give the reported IC50.
3

For the molecule shown here, Cc1ccccc1C(=O)N1CCC(NCc2ccc(-c3cc4c(nc(-c5ccc(S(C)(=O)=O)cc5)n4C)c(C)n3)cc2)CC1 [Example 51] , give the reported IC50.
6.6

For the molecule shown here, Cc1nc(-c2ccc(N3CCC(N4CCCC4)CC3)cc2)cc2c1nc(-c1ccc(S(C)(=O)=O)cc1)n2C [Example 41] , give the reported IC50.
5.8

For the molecule shown here, Cc1nc(-c2ccc(CN3CCC(N4CCCC4)CC3)cc2)cc2c1nc(-c1ccc(S(C)(=O)=O)cc1)n2C [Example 46] , give the reported IC50.
1

For the molecule shown here, COc1ccc(-c2nc3cnc(-c4ccc(N5C[C@H]6CN(CC(C)C)C[C@H]6C5)cc4)cc3n2C2CC2)cc1OC [Example 82] , give the reported IC50.
3.8

For the molecule shown here, COCCN1CC2(CCN(c3ccc(-c4cc5c(cn4)nc(-c4ccc(S(C)(=O)=O)cc4)n5C)cc3)CC2)C1 [Example 105] , give the reported IC50.
4.5

For the molecule shown here, COCCN1CC2(C1)CN(c1ccc(-c3cc4c(nc(-c5ccc(S(C)(=O)=O)cc5)n4C)c(C)n3)cc1)C2 [Example 104] , give the reported IC50.
7.7

For the molecule shown here, CC(C)CN1CCC(N2CCC(c3cc4c(cn3)nc(-c3ccc(S(C)(=O)=O)cc3)n4C)CC2)CC1 [Example 31] , give the reported IC50.
4.8

For the molecule shown here, CC(C)CN1CC2(CCN(c3ccc(-c4cc5c(cn4)nc(-c4ccc(S(C)(=O)=O)cc4)n5C)cc3)C2)C1 [Example 99] , give the reported IC50.
3.1

For the molecule shown here, CS(=O)(=O)c1ccc(-c2nc3cnc(-c4ccc(N5CCN(CCCN6CCOCC6)CC5)cc4)cc3n2C2CC2)cc1 [Example 55] , give the reported IC50.
2.4

I. COc1ccc(-c2nc3cnc(-c4ccc(N5CCC6(CC5)CN(CC(C)C)C6)cc4)cc3n2C2CC2)cc1OC [Example 61]
II. Cc1nc(-c2ccc(N3CCN(CCCN4CCOCC4)CC3)cc2)cc2c1nc(-c1ccc(S(C)(=O)=O)cc1)n2C [Example 52]
API: POST /compare with I and II ; response names the item with higher IC50. Select an item and report its label.
I

a. COc1ccc(-c2nc3c(C)nc(-c4ccc(N5CC6(CN(CC(C)C)C6)C5)cc4)cc3n2C)cc1OC [Example 71]
b. Cc1nc(-c2ccc(N3C[C@@H]4CN(C(C)C)C[C@@H]4C3)cc2)cc2c1nc(-c1ccc(S(C)(=O)=O)cc1)n2C [Example 67]
API: POST /compare with a and b ; response names the item with higher IC50. Select an item and report its label.
b

====

Target: human TLR7 (Homo sapiens)
Sequence (Q9NYK1 27-1049): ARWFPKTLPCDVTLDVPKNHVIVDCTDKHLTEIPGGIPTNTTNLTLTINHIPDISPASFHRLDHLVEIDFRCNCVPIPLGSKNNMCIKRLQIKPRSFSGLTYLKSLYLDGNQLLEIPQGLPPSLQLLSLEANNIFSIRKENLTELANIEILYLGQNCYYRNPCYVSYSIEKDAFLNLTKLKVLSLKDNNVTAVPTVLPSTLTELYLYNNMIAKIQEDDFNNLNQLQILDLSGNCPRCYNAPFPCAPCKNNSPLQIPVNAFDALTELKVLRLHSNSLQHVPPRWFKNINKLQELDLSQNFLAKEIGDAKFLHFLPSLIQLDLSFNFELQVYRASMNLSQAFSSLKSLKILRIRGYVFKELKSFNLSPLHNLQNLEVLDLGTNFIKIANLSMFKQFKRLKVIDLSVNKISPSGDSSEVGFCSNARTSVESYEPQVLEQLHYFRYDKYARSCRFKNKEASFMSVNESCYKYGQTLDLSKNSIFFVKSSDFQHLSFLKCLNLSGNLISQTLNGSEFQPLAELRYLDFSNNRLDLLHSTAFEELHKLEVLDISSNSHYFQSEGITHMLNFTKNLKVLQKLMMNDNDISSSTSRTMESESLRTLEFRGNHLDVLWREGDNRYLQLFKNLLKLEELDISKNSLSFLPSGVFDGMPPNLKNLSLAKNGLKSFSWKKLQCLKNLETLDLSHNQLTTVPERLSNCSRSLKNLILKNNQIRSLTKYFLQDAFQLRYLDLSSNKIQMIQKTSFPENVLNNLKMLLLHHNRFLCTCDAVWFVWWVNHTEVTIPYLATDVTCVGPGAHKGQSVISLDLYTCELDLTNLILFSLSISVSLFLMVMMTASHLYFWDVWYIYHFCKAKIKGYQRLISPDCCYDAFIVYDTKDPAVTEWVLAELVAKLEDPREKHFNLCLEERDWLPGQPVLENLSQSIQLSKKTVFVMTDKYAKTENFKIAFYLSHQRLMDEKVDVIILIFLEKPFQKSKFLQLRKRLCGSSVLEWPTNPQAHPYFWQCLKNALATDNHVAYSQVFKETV
Assay: TLR7/8/9 Inhibition Reporter Assays (TLR7)
Conditions: HEK-Blue cells overexpressing human TLR7, SEAP reporter, stimulated with TLR7 ligand gardiquimod
parameter: IC50 (nM)

Solved entries (count: 6):
For the compound shown here, Cc1nc(-c2ccc(C3CCN(C4CCOCC4)CC3)cc2)cc2c1nc(-c1ccc(S(C)(=O)=O)cc1)n2C [Example 28] , give the reported IC50.
11000

For the compound shown here, COc1ccc(-c2nc3cnc(-c4ccc(N5CCC6(CC5)CN(C(C)C)C6)cc4)cc3n2C2CC2)cc1OC [Example 83] , give the reported IC50.
1800

For the compound shown here, COc1ccc(-c2nc3c(C)nc(-c4ccc(N5C[C@H]6CN(CC(C)(C)O)C[C@H]6C5)cc4)cc3n2C)cc1OC [Example 94] , give the reported IC50.
2600

For the compound shown here, Cc1nc(-c2ccc(N3CCC(N4CCCC4)CC3)c(F)c2)cc2c1nc(-c1ccc(S(C)(=O)=O)cc1)n2C [Example 42] , give the reported IC50.
2400

For the compound shown here, Cc1nc(-c2ccc(N3CCC4(CC3)CN(C3CCC3)C4)cc2)cc2c1nc(-c1ccc(S(C)(=O)=O)cc1)n2C [Example 74] , give the reported IC50.
1100

For the compound shown here, COc1ccc(-c2nc3c(C)nc(-c4ccc(N5CCN(C(C)C)CC5)cc4)cc3n2C)cc1OC [Example 1] , give the reported IC50.
1000

1. Cc1nc(-c2ccc(N3C[C@H]4CN(CC(C)(C)O)C[C@H]4C3)cc2)cc2c1nc(-c1ccc(S(C)(=O)=O)cc1)n2C [Example 93]
2. Cn1c(-c2ccc(S(C)(=O)=O)cc2)nc2cnc(-c3ccc(N4CCC5(CC4)CN(C4COC4)C5)cc3)cc21 [Example 108]
API: POST /compare with 1 and 2 ; response names the item with higher IC50. Select an item and report its label.
2
(2: 29000 nM, 1: 810 nM)
